Entry source: patent US9056835B2

Quick list: EC50 per entry.
# tested_on: LPA2 (Homo sapiens)
# assay_info: LPA receptor-mediated Ca2+ mobilization assay, LPA2 (RH7777 cells stably expressing LPA2)
# Format: cell-based
# Parameters: expressed in transfected cells
# condition_details: agonist, Ca2+ mobilization; read-out: LPA2 EC50
The reply should be a number in µM, with the unit left off.

Take a look at these entries with their results.
- compound: "O=C(O)c1ccccc1C(=O)Nc1ccc2c(c1)C(=O)c1ccccc1C2=O [Compound H2L5828102]"
  EC50 (µM): 3.3
- compound: "O=C(O)c1ccccc1C(=O)Nc1ccc2c(c1)C(=O)c1ccccc1-2 [NSC12404]"
  EC50 (µM): 9.5
- compound: "O=C(O)c1cc(Cl)c(Cl)cc1C(=O)Nc1ccc2c(c1)C(=O)c1ccccc1-2 [Compound H2L5547924]"
  EC50 (µM): 2.8

Shifting focus to the compound that follows.
Field EC50 (entry O=C(O)c1ccccc1SCCCN1C(=O)c2cccc3cccc(c23)C1=O [GRI977143] ) reads 3.3

----------
# tested_on: LPA2 (Homo sapiens)
# assay_info: LPA receptor-mediated Ca2+ mobilization assay, LPA2 (RH7777 cells stably expressing LPA2)
# Type: cell-based
# Set-up: expressed in transfected cells
# condition_details: Ca2+ transients, RH7777 cells stably expressing LPA2; read-out: EC50 (μM) (RH7777)
experimental_endpoint: EC50

According to the records, this molecule O=C(O)c1ccccc1S(=O)(=O)NCCCCN1C(=O)c2cccc3cccc(c23)C1=O displays EC50 of 0.5 µM

----------
# tested_on: LPA2 (Homo sapiens)
# assay_info: Fura-2AM Ca2+ mobilization in LPA2 DKO MEF cells
# Assay type: cell-based
# Set-up: expressed in transfected cells; host or cells: mouse embryonic fibroblasts from LPA1/2 double-knockout mice, lentiviral transduction
# condition_details: DKO MEF
experimental_endpoint: EC50 (µM)
Report only the number, with the unit µM understood.

- mol_smiles: "O=C(O)c1ccccc1S(=O)(=O)NCCCCN1C(=O)c2cccc3cccc(c23)C1=O"
  EC50 [µM]: 0.5

Switching to the query record.
Entry under test: O=C(O)c1ccc(Br)cc1S(=O)(=O)NCCCCN1C(=O)c2cccc3cccc(c23)C1=O . Its EC50 was 0.4

----------
# EC50 listing for each entry below
# tested_on: LPA2 (Homo sapiens, UniProt Q9HBW0)
# Sequence (Q9HBW0 whole entry): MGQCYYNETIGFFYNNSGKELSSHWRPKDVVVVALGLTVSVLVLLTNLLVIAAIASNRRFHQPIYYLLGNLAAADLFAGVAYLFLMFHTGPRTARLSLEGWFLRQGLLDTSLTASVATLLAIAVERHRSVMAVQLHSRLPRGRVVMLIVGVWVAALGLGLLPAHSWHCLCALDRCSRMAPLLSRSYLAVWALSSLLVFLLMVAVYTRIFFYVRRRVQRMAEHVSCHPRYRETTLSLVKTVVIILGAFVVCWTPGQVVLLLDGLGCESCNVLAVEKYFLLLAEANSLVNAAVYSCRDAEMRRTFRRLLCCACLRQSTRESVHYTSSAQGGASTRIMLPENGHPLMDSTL
# assay_info: LPA receptor-mediated Ca2+ mobilization assay, LPA2 (RH7777 cells stably expressing LPA2)
# Type: cell-based
# Set-up: expressed in transfected cells
# condition_details: Ca2+ transients, RH7777 cells stably expressing LPA2; read-out: EC50 (μM) (RH7777)

Some compounds with recorded EC50:
- mol_smiles: "O=C(O)c1ccccc1SCCCN1C(=O)c2cccc3cccc(c23)C1=O"
  result: "3.3 µM"
- mol_smiles: "O=C(O)c1ccc2c(c1)S(=O)(=O)N(CCCCN1C(=O)c3cccc4cccc(c34)C1=O)C2=O"
  result: "3.6 µM"
- mol_smiles: "O=C(O)c1ccc([N+](=O)[O-])cc1S(=O)(=O)NCCCCN1C(=O)c2cccc3cccc(c23)C1=O"
  result: "> 10 µM"
- mol_smiles: "O=C(O)c1ccc(Br)cc1S(=O)(=O)NCCCCN1C(=O)c2cccc3cccc(c23)C1=O"
  result: "1 µM"
- mol_smiles: "O=C(O)c1ccccc1S(=O)(=O)NCCCCCN1C(=O)c2cccc3cccc(c23)C1=O"
  result: "1.2 µM"
- mol_smiles: "COc1ccc(C(=O)O)c(S(=O)(=O)NCCCCN2C(=O)c3cccc4cccc(c34)C2=O)c1"
  result: "> 10 µM"

Here's the next entry for you.
Given item O=C(O)c1ccccc1S(=O)(=O)NCCCN1C(=O)c2cccc3cccc(c23)C1=O , the value recorded as its EC50 is 2.2 µM
